assay-summary: Inhibition of HIF-1 pathway in human LN229 cells harboring HRE-AP by alkaline phosphatase reporter gene assay
Format: cell-based
reported-conditions: LN-229

{"columns": ["smiles-repr", "IC50, nM"],
 "data": [
  ["COc1ccc(S(=O)(=O)N(Cc2ccc3c(c2)C=CC(C)(C)O3)c2ccccc2)cc1OC", 600]
]}
